// data source = paper PMC4542541

System: TcSKR2
test.name: Receptor activation bioassay, CRE-luciferase reporter in Sf9-TcSKR2 cells
Format: cell-based, Tribolium castaneum
condition.details: peptide 10 μM; Sf9-TcSKR2 cells transiently transfected with pGL4.29[luc2P/CRE/Hygro]; 5 h at 27 °C; Bright-Glo luminescence; activity related to nsSK; mean ± SEM, at least two biological replicates; SEM
Label 1 when relative activity (% nsSK) TcSKR2 >= 10 % nsSK; otherwise -1.

Record FDDYGHARF-NH2 [Peptide 2005, alanine-substituted nsSK, …-NH2] ; criterion: relative activity (% nsSK) TcSKR2 no lower than 10 % nsSK. Met?
1

Record FDDYGHMRF-NH2 [nsSK, nonsulfated sulfakinin peptide …-NH2, parental peptide of the series, reference compound] ; criterion: relative activity (% nsSK) TcSKR2 no lower than 10 % nsSK. Met?
1

Record FDDYGAMRF-NH2 [Peptide 2006, alanine-substituted nsSK, …-NH2] ; criterion: relative activity (% nsSK) TcSKR2 no lower than 10 % nsSK. Met?
-1

Record FDDAGHMRF-NH2 [Peptide 2008, alanine-substituted nsSK, …-NH2] ; criterion: relative activity (% nsSK) TcSKR2 no lower than 10 % nsSK. Met?
1

Record YGHMRF-NH2 [Peptide 2011, truncated nsSK, YGHMRF-NH2] ; criterion: relative activity (% nsSK) TcSKR2 no lower than 10 % nsSK. Met?
1
